TEST: acute toxicity
RUN_CONDITIONS: rat, in vivo, iv
Text: Acute toxicity tests were undertaken with Compound A on mice and rats.
OBSERVED_PROPERTY: LD50 (mg/kg)
Give a bare numeral; the unit mg/kg is implied.

[ask] Endpoint output: LD50 of NC(=O)O[C@@H]1CCN(CCCOc2ccc(F)cc2)[C@H]2CCCC[C@H]12 (relative stereo) . Value?
[reply] 47

---

TEST: acute toxicity
RUN_CONDITIONS: mouse, in vivo; mice, intravenous
OBSERVED_PROPERTY: LD50 (mg/kg)
Hi! Could you send only the number? It should be in mg/kg, unit omitted.

[ask] I would be grateful if you could share the reported LD50 for NC(=O)O[C@@H]1CCN(CCCOc2ccc(F)cc2)[C@H]2CCCC[C@H]12 (relative stereo) [Compound A] .
[reply] 42.5
